Test system: K562
Test: NCI tumour cell line growth inhibition, 48 h
Activity calls are given as the source filed them. Rule as the data show it: active = GI50 up to about 1.1 µM and inactive = higher.
Outcome codes: yes (active), no (inactive)

[[record]]
molecule = "Cc1c(-c2ccccc2)oc(=O)c2ccccc12"
label_class = "no"

[[record]]
molecule = "O=C1Nc2ccccc2[C@]12C[C@H]2c1ccccn1"
label_class = "no"

[[record]]
molecule = "O=c1[nH]c(-n2[nH]c3c(c2=O)CCCC3)nc(O)c1-c1ccccc1"
label_class = "no"

[[record]]
molecule = "CC1=NN(c2cccc(Cl)c2)C2(C1=Cc1ccc(O)cc1)C(Cl)C(=O)N2c1nc2ccccc2s1 (stereo not given)"
label_class = "no"

[[record]]
molecule = "CN(CCN1CCCC1)C1CCc2cc(Cl)c(Cl)cc2C1 (stereo not given)"
label_class = "no"

[[record]]
molecule = "O=C(O)/C=C/C=C/c1ccc2c(c1)OCO2"
label_class = "no"

[[record]]
molecule = "CCCCCCCCCCCCCCCCCCOP(=O)([O-])OCC[N+](C)(C)C"
label_class = "yes"

[[record]]
molecule = "CCOC(=O)C1=C(N)N(c2ccccc2)/C(=C2\\SC(=S)N(c3ccc(C)cc3)C2=O)S1"
label_class = "no"

[[record]]
molecule = "CCOC(=O)C1N(S(=O)(=O)c2ccc(C)cc2)CCC12c1ccccc1NC2c1ccc(OC)c(OC)c1 (stereo not given)"
label_class = "no"

[[record]]
molecule = "CN(CCc1ccccn1)c1nc(=[N+](C)C)ss1"
label_class = "no"

